molecular target: HLA-A*02:01; assay: IEDB peptide-MHC binding, purified MHC/competitive/radioactivity; bounds were set here for any values at or beyond the usual limits of such assays; conditions: source organism: Vaccinia virus WR
QUANTITY MEASURED: IC50 (nM)
Numbers only here, please. The scale is nM.

What does the data say about its IC50? Entry: "TTLSRHIFMA" 399

What does the data say about its IC50? Entry: "SISEINEWL" 1.9

What does the data say about its IC50? Entry: "RLYDLTRYA" 4

What does the data say about its IC50? Entry: "KADAVVADL" 3960

* * *

target: HLA-A*02:02; test: IEDB peptide-MHC binding, purified MHC/competitive/radioactivity; bounds were set here for any values at or beyond the usual limits of such assays; details: source organism: Vaccinia virus WR
QUANTITY MEASURED: IC50 (nM)
Numbers only here, please. The scale is nM.

What does the data say about its IC50? Entry: "ALTDVEKRIL" 97

What does the data say about its IC50? Entry: "RLPSETFPNV" 173

What does the data say about its IC50? Entry: "PTILATLNTL" 374

What does the data say about its IC50? Entry: "IAGGVCYYL" 53

What does the data say about its IC50? Entry: "DTCLLAISA" 4330

What does the data say about its IC50? Entry: "IAVSVYGAI" 1480

What does the data say about its IC50? Entry: "FLPQIGGEAI" 1

What does the data say about its IC50? Entry: "NIVTFINDYA" 62
